Where do these numbers come from? They come from patent US20050080013A1.

Items are presented alongside their recorded ACTIVITY (%) LCAT.
Target: T1, lecithin:cholesterol acyltransferase (LCAT), purified from human plasma (human, UniProt P04180 25-440)
T1 sequence (looked up): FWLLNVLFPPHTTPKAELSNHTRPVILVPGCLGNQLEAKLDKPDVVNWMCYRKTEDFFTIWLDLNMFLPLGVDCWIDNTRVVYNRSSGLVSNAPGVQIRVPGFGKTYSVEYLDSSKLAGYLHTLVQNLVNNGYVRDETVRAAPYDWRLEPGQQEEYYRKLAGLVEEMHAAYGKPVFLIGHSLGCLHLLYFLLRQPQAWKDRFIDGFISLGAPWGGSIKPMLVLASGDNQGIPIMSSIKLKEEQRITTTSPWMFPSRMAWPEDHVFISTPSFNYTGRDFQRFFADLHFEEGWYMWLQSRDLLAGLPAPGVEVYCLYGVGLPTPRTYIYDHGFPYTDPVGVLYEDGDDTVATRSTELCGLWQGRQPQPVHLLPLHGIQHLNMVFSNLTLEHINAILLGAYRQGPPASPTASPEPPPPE
Assay: cell-based or functional assay
Please respond with the number in % and leave the unit unwritten.

INPUT: I would be grateful if you could share the reported ACTIVITY (%) LCAT for PVLELFENWLERLLDALQKKLK [peptide 162] .
OUTPUT: 27

INPUT: Give the measured ACTIVITY (%) LCAT of PVLELFLNLLERLLDAWQKKLK [peptide 184] .
OUTPUT: 4

INPUT: Any idea what its ACTIVITY (%) LCAT is? The binder is PVLDLFRELLEELLKALKKKLK [peptide 39]
OUTPUT: 25
